Taken from patent US20240173316A1.

Measured Target: RGS2-Galpha-q interaction (Homo sapiens (Human))
Assay Overview: NanoBit RGS/Gα cell-based protein-protein interaction assay, RGS2
Assay Context: RGS4 IC50/RGS2 IC50
Measured Selectivity accompanies every entry in the list below.
Measurement Type: Selectivity

1. Cc1ccc([C@@H](C(=O)NC2CCCCC2)N(Cc2ccccc2Cl)C(=O)c2ccc(CN3CCOCC3)o2)o1 :: 1.81
2. Cc1cc(C)c2[nH]c(=O)c([C@@H](c3nnnn3Cc3ccc4c(c3)OCO4)N3CCN(C)CC3)cc2c1 :: 1.53
3. Cc1cccc2cc([C@H](c3nnnn3Cc3ccc4c(c3)OCO4)N3CCN(C)CC3)c(=O)[nH]c12 :: 0.48
4. Cc1cc(C)c2[nH]c(=O)c(C(c3nnnn3Cc3ccc(F)cc3)N3CCN(C4CCCCC4)CC3)cc2c1 (stereo not drawn) :: 2.72
5. COc1ccc(Cn2nnnc2[C@H](c2cc3cc(C)ccc3[nH]c2=O)N2CCN(C3CCCCC3)CC2)cc1 :: 13
6. Nc1nc2c(nc(NCCCN3CCOCC3)n2[C@H]2O[C@@H](CO)[C@H](O)[C@@H]2O)c(=O)[nH]1 :: 289
7. Cc1onc(C(=O)NNC(=O)Nc2ccc(Cl)cc2)c1C(=O)N1CCN(C(c2ccccc2)c2ccccc2)CC1 :: 4.25
8. CCc1ccc2[nH]c(=O)c(C(c3nnnn3Cc3ccc(F)cc3)N3CCN(C4CCCCC4)CC3)cc2c1 (stereo not drawn) :: 0.29
9. Cn1c(=O)c2c(nc(NCc3ccccc3)n2C[C@H](O)CN2CCN(Cc3ccccc3)CC2)n(C)c1=O :: 0.51

----------
Measured Target: RGS4-Galpha-q interaction (Homo sapiens (Human))
Sequence (P49798 whole entry): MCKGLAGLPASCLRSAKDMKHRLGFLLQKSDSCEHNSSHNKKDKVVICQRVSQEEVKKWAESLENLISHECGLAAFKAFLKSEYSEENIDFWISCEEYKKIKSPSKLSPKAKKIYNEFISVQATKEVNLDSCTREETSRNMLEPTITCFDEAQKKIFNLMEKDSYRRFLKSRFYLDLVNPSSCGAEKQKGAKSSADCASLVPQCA
Assay Overview: NanoBit RGS/Gα cell-based protein-protein interaction assay, RGS4
Assay Context: inhibition of RGS4-Galpha-q interaction; read-out: RGS4 IC50 μM (95% Cl)
Measurement Type: IC50 (µM)

1) Cc1onc(C(=O)NNC(=O)Nc2ccc(Cl)cc2)c1C(=O)N1CCN(C(c2ccccc2)c2ccccc2)CC1 [AJ-3] :: 21
2) COc1ccc(Cn2nnnc2[C@H](c2cc3cc(C)ccc3[nH]c2=O)N2CCN(C3CCCCC3)CC2)cc1 [AJ-2] :: 18.8
3) Cc1cc(C)c2[nH]c(=O)c(C(c3nnnn3Cc3ccc(F)cc3)N3CCN(C4CCCCC4)CC3)cc2c1 (stereo not drawn) [AJ-9] :: 91
4) CCc1ccc2[nH]c(=O)c(C(c3nnnn3Cc3ccc(F)cc3)N3CCN(C4CCCCC4)CC3)cc2c1 (stereo not drawn) [AJ-8] :: 9.6
5) Nc1nc2c(nc(NCCCN3CCOCC3)n2[C@H]2O[C@@H](CO)[C@H](O)[C@@H]2O)c(=O)[nH]1 [AJ-1] :: 10.1
6) Cc1ccc([C@@H](C(=O)NC2CCCCC2)N(Cc2ccccc2Cl)C(=O)c2ccc(CN3CCOCC3)o2)o1 [AJ-4] :: 25
7) Cc1cc(C)c2[nH]c(=O)c([C@@H](c3nnnn3Cc3ccc4c(c3)OCO4)N3CCN(C)CC3)cc2c1 [AJ-5] :: 23
8) Cn1c(=O)c2c(nc(NCc3ccccc3)n2C[C@H](O)CN2CCN(Cc3ccccc3)CC2)n(C)c1=O [AJ-7] :: 14.1

----------
Measured Target: RGS2-Galpha-q interaction (Homo sapiens (Human), UniProt P41220)
Sequence (P41220 whole entry): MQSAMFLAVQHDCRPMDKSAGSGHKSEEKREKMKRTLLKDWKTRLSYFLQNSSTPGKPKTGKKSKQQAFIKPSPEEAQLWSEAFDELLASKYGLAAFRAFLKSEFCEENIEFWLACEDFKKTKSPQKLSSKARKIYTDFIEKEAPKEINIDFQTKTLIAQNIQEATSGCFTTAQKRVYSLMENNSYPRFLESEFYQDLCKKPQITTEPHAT
Assay Overview: NanoBit RGS/Gα cell-based protein-protein interaction assay, RGS2
Assay Context: inhibition of RGS2-Galpha-q interaction; read-out: RGS2 IC50 μM (95% Cl)
Let's look at some molecules and their measured IC50.
Measurement Type: IC50

1. Cc1cc(C)c2[nH]c(=O)c(C(c3nnnn3Cc3ccc(F)cc3)N3CCN(C4CCCCC4)CC3)cc2c1 (stereo not shown) [AJ-9] :: 33.5 µM
2. Nc1nc2c(nc(NCCCN3CCOCC3)n2[C@H]2O[C@@H](CO)[C@H](O)[C@@H]2O)c(=O)[nH]1 [AJ-1] :: 0.04 µM
3. Cc1cc(C)c2[nH]c(=O)c([C@@H](c3nnnn3Cc3ccc4c(c3)OCO4)N3CCN(C)CC3)cc2c1 [AJ-5] :: 15 µM
4. Cn1c(=O)c2c(nc(NCc3ccccc3)n2C[C@H](O)CN2CCN(Cc3ccccc3)CC2)n(C)c1=O [AJ-7] :: 27.6 µM
5. Cc1ccc([C@@H](C(=O)NC2CCCCC2)N(Cc2ccccc2Cl)C(=O)c2ccc(CN3CCOCC3)o2)o1 [AJ-4] :: 13.8 µM
6. COCc1ccc2[nH]c(=O)c(C(c3nnnn3C[C@H]3CCCO3)N3CCN(Cc4ccccc4)CC3)cc2c1 (stereo partly shown) [AJ-10] :: 78 µM
7. Cc1onc(C(=O)NNC(=O)Nc2ccc(Cl)cc2)c1C(=O)N1CCN(C(c2ccccc2)c2ccccc2)CC1 [AJ-3] :: 4.94 µM
8. Cc1cccc2cc([C@H](c3nnnn3Cc3ccc4c(c3)OCO4)N3CCN(C)CC3)c(=O)[nH]c12 [AJ-6] :: 19.8 µM
9. COc1ccc(Cn2nnnc2[C@H](c2cc3cc(C)ccc3[nH]c2=O)N2CCN(C3CCCCC3)CC2)cc1 [AJ-2] :: 1.45 µM
10. CCc1ccc2[nH]c(=O)c(C(c3nnnn3Cc3ccc(F)cc3)N3CCN(C4CCCCC4)CC3)cc2c1 (stereo not shown) [AJ-8] :: 33.1 µM
